# key: entry, value: pEC50
assaySystem: Peroxisome proliferator-activated receptor gamma (Homo sapiens, UniProt P37231)
Sequence (P37231 whole entry): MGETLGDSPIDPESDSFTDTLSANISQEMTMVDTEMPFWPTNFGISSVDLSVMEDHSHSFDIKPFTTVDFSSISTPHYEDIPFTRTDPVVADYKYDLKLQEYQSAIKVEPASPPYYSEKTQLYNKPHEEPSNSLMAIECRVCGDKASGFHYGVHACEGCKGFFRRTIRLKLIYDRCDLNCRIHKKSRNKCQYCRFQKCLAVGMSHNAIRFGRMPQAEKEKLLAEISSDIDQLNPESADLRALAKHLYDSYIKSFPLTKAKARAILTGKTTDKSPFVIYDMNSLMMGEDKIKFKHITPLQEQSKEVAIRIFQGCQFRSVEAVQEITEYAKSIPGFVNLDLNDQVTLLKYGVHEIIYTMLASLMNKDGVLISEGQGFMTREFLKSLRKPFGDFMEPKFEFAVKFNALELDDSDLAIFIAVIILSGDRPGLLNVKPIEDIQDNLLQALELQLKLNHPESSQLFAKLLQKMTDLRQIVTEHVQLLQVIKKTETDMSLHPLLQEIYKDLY
protocolNotes: Agonist activity at yeast Gal4-fused human PPARgamma transfected in human HepG2 cells assessed as transactivation by measuring beta-galactosidase activity incubated for 20 hrs by luminometry
Quick note: pEC50 means taking -log10 of the concentration in moles per liter.

Examples with their reported pEC50 follow.
| compound | pEC50 |
| --- | --- |
| CC(C)(C)OC(=O)NC(CSCc1ccc(C(=O)c2ccc(C(F)(F)F)cc2)cc1)C(=O)O (stereo not given) | 5.66 |
| O=C(Cc1ccccc1)NC(CSCc1ccccc1)C(=O)O (stereo not given) | 4.96 |
| CC(C)(C)OC(=O)NC(CSCc1ccc(Cc2ccccc2)cc1)C(=O)O (stereo not given) | 5.47 |

Consider CC(C)(C)OC(=O)NC(CSCc1ccccc1)C(=O)O (stereo not given) . Its measured pEC50 is 4.59

Consider CC(C)(C)OC(=O)NC(CSCc1ccc(/C=C/C(=O)c2ccccc2)cc1)C(=O)O (stereo not given) . Its measured pEC50 is 4.99

Consider Cc1ccc(C(=O)c2ccc(CSCC(NC(=O)OC(C)(C)C)C(=O)O)cc2)cc1 (stereo not given) . Its measured pEC50 is 5.34

Consider CC(C)(C)OC(=O)NC(CSCc1ccc(-c2ccccc2)cc1)C(=O)O (stereo not given) . Its measured pEC50 is 5.41

Consider COc1ccc(C(=O)c2ccc(CSCC(NC(=O)OC(C)(C)C)C(=O)O)cc2)cc1 (stereo not given) . Its measured pEC50 is 5.12

Consider CC(C)(C)OC(=O)NC(CSCc1ccc(C(=O)c2ccc([N+](=O)[O-])cc2)cc1)C(=O)O (stereo not given) . Its measured pEC50 is 4.89

Consider CC(C)(C)OC(=O)N[C@@H](CSCc1ccc(C(=O)c2ccccc2)cc1)C(=O)O . Its measured pEC50 is 5.08

Consider CC(C)(C)OC(=O)NC(COCc1ccc(-c2ccccc2)cc1)C(=O)O (stereo not given) . Its measured pEC50 is 4.89

Consider CC(C)(C)OC(=O)NC(CSCc1ccc(C(=O)c2ccccc2)cc1)C(=O)O (stereo not given) . Its measured pEC50 is 4.99

Origin of the recorded values: ChEMBL document CHEMBL5154813
